Each item that follows carries a reported MIC.
system: Aspergillus niger; experiment: Antifungal activity against Aspergillus niger ATCC 598 after 72 to 96 hrs by twofold serial dilution method; type: functional
Provide the reading as a plain figure in µg/mL.

Please review the entries below; each comes with its answer.
compound	metric name	result unit	readout number
O=C(c1cccs1)[C@H]1[C@H](c2ccc(Cl)cc2)C2CCCN2[C@]12C(=O)Nc1ccccc12 (some centres not stated)	MIC	µg/mL	25
O=C(c1cccs1)[C@H]1[C@H](c2cccc(Br)c2)C2CCCN2[C@]12C(=O)Nc1ccccc12 (some centres not stated)	MIC	µg/mL	100
O=C(c1cccs1)[C@H]1[C@H](c2ccc(F)cc2)C2CCCN2[C@]12C(=O)Nc1ccccc12 (some centres not stated)	MIC	µg/mL	200
COc1ccc([C@@H]2C3CCCN3[C@]3(C(=O)Nc4ccccc43)[C@H]2C(=O)c2cccs2)cc1 (some centres not stated)	MIC	µg/mL	100
CN(C)c1ccc([C@@H]2C3CCCN3[C@]3(C(=O)Nc4ccccc43)[C@H]2C(=O)c2cccs2)cc1 (some centres not stated)	MIC	µg/mL	100
C[C@@H]1[C@H](O)[C@@H](C)/C=C/C=C/C=C/C=C/C=C/C=C/C=C/[C@H](O[C@@H]2O[C@H](C)[C@@H](O)[C@H](N)[C@@H]2O)C[C@@H]2O[C@](O)(C[C@@H](O)C[C@@H](O)[C@H](O)CC[C@@H](O)C[C@@H](O)CC(=O)O[C@H]1C)C[C@H](O)[C@H]2C(=O)O [AMPHOTERICIN B]	MIC	µg/mL	50

Now for a further compound.
Which MIC is reported for this compound? O=C(c1cccs1)[C@H]1[C@H](c2ccc([N+](=O)[O-])cc2)C2CCCN2[C@]12C(=O)Nc1ccccc12 (some centres not stated)
100

---

tested on: Aspergillus flavus; test: Antifungal activity against Aspergillus flavus ATCC 485 after 72 to 96 hrs by twofold serial dilution method; type: functional
metric name: MIC (µg/mL)
Provide the reading as a plain figure in µg/mL.

Please review the entries below; each comes with its answer.
compound	readout number
C[C@@H]1[C@H](O)[C@@H](C)/C=C/C=C/C=C/C=C/C=C/C=C/C=C/[C@H](O[C@@H]2O[C@H](C)[C@@H](O)[C@H](N)[C@@H]2O)C[C@@H]2O[C@](O)(C[C@@H](O)C[C@@H](O)[C@H](O)CC[C@@H](O)C[C@@H](O)CC(=O)O[C@H]1C)C[C@H](O)[C@H]2C(=O)O	50
COc1ccc([C@@H]2C3CCCN3[C@]3(C(=O)Nc4ccccc43)[C@H]2C(=O)c2cccs2)cc1 (some centres undefined)	25
O=C(c1cccs1)[C@H]1[C@H](c2ccccc2)C2CCCN2[C@]12C(=O)Nc1ccccc12 (some centres undefined)	200

Find the measured MIC: item O=C(c1cccs1)[C@H]1[C@H](c2ccc(F)cc2)C2CCCN2[C@]12C(=O)Nc1ccccc12 (some centres undefined) , target or system Aspergillus flavus.
100

Find the measured MIC: item O=C(c1cccs1)[C@H]1[C@H](c2cccc(Br)c2)C2CCCN2[C@]12C(=O)Nc1ccccc12 (some centres undefined) , target or system Aspergillus flavus.
200

---

test system: Cryptococcus neoformans; test: Antifungal activity against Cryptococcus neoformans ATCC 3312 after 72 to 96 hrs by twofold serial dilution method; format: functional
Each item that follows carries a reported MIC.
Provide the reading as a plain figure in µg/mL.

Which MIC is reported for this molecule? CN(C)c1ccc([C@@H]2C3CCCN3[C@]3(C(=O)Nc4ccccc43)[C@H]2C(=O)c2cccs2)cc1 (stereo partly drawn)
50

Which MIC is reported for this molecule? COc1ccc([C@@H]2C3CCCN3[C@]3(C(=O)Nc4ccccc43)[C@H]2C(=O)c2cccs2)cc1 (stereo partly drawn)
50

Which MIC is reported for this molecule? O=C(c1cccs1)[C@H]1[C@H](c2ccccc2)C2CCCN2[C@]12C(=O)Nc1ccccc12 (stereo partly drawn)
50
